Test system: recombinant NL4-3 virus
ASSAY OVERVIEW: HIV cell culture assay
Assay type: cell-based
CONDITION NOTES: Human immunodeficiency virus 1, NL43, MT2
Kindly state EC50 for each of the entries shown.
Numbers only, in nM.

C=C(C)[C@@H]1CC[C@]2(CO)CC[C@]3(C)[C@H](CC[C@@H]4[C@@]5(C)CCCN(S(=O)(=O)c6ccc(C(=O)O)cc6)C(C)(C)C5CC[C@]43C)[C@@H]12 (some centres unmarked); 1700
C=C(C)[C@@H]1CC[C@]2(CNCCCN3CCS(=O)(=O)CC3)CC[C@]3(C)[C@H](CC[C@@H]4[C@@]5(C)CCN(C(=O)CC(C)(C)C(=O)O)C(C)(C)[C@@H]5CC[C@]43C)[C@@H]12; 390

Shifting focus to the molecule that follows.
Short answer for C=C(C)[C@@H]1CC[C@]2(CO)CC[C@]3(C)[C@H](CC[C@@H]4[C@@]5(C)CCN(S(=O)(=O)c6ccc(/C=C/C(=O)O)cc6)C(C)(C)C5CC[C@]43C)[C@@H]12 (some centres unmarked) : EC50 was 4200

###

Test system: recombinant NL4-3 virus
ASSAY OVERVIEW: HIV cell culture assay
Format: cell-based
CONDITION NOTES: Human immunodeficiency virus 1, NL43, MT2
ENDPOINT LABEL: EC50 (nM)
Numbers only, in nM.

C=C(C)[C@@H]1CC[C@]2(CNCCCN3CCS(=O)(=O)CC3)CC[C@]3(C)[C@H](CC[C@@H]4[C@@]5(C)CCN(c6ccc(C(=O)O)cn6)C(C)(C)[C@@H]5CC[C@]43C)[C@@H]12; 3
C=C(C)[C@@H]1CC[C@]2(CNCCCN3CCS(=O)(=O)CC3)CC[C@]3(C)[C@H](CC[C@@H]4[C@@]5(C)CCN(C(=O)CC6(CC(=O)O)CCCC6)C(C)(C)[C@@H]5CC[C@]43C)[C@@H]12; 130
C=C(C)[C@@H]1CC[C@]2(CO)CC[C@]3(C)[C@H](CC[C@@H]4[C@@]5(C)CCN(C(=O)CC(=O)O)C(C)(C)C5CC[C@]43C)[C@@H]12 (some centres unmarked); 480

Short answer on recombinant NL4-3 virus for C=C(C)[C@@H]1CC[C@]2(CNCCCN3CCS(=O)(=O)CC3)CC[C@]3(C)[C@H](CC[C@@H]4[C@@]5(C)CCN(C(=O)c6ccc(C(=O)O)cc6)C(C)(C)[C@@H]5CC[C@]43C)[C@@H]12 , EC50: 110

###

Tested on: recombinant NL4-3 virus
ASSAY OVERVIEW: HIV cell culture assay
Format: cell-based
CONDITION NOTES: Human immunodeficiency virus 1, NL43, MT2
Kindly state EC50 for each of the entries shown.

Below are worked cases with known answers.
C=C(C)[C@@H]1CC[C@]2(C(=O)O)CC[C@]3(C)[C@H](CC[C@@H]4[C@@]5(C)CC(=O)N(c6ccc(C(=O)O)cc6)C(C)(C)[C@@H]5CC[C@]43C)[C@@H]12; > 3 µM
C=C(C)[C@@H]1CC[C@]2(CO)CC[C@]3(C)[C@H](CC[C@@H]4[C@@]5(C)CCCN(S(=O)(=O)c6ccc(C(=O)O)o6)C(C)(C)C5CC[C@]43C)[C@@H]12 (some centres unmarked); > 8 µM

// for each molecule below, give its EC50
1. C=C(C)[C@@H]1CC[C@]2(CNCCCN3CCS(=O)(=O)CC3)CC[C@]3(C)[C@H](CC[C@@H]4[C@@]5(C)CCN(C/C=C/C(=O)O)C(C)(C)[C@@H]5CC[C@]43C)[C@@H]12
2. C=C(C)[C@@H]1CC[C@]2(CO)CC[C@]3(C)[C@H](CC[C@@H]4[C@@]5(C)CCCN(S(=O)(=O)c6ccc(C)c(C(=O)O)c6)C(C)(C)C5CC[C@]43C)[C@@H]12 (some centres unmarked)
3. C=C(C)[C@@H]1CC[C@]2(CO)CC[C@]3(C)[C@H](CC[C@@H]4[C@@]5(C)CCCN(C(=O)CCCCC(=O)O)C(C)(C)C5CC[C@]43C)[C@@H]12 (some centres unmarked)

Result:
> 3 µM
> 8 µM
> 8 µM
